- tested target: AMP-activated protein kinase, AMPK (Homo sapiens) (UniProt P54646+O43741+P54619+Q9UGJ0+Q9Y478+Q13131+Q9UGI9)
- procedure text: AMP-dependent Kinase enzyme assay. An in vitro enzyme assay that detects ADP turnover that is directly proportional to AMPK activity. This uses naive AMPK that is activated during the assay with MK-8722
- Format: functional
- Set-up: scale not given: direction of the effect not stated beside the values
- experimental context: 30 µM
# Percent Effect annotations
reported metric: Percent Effect (%)

[[record]]
compound = "Cc1nc(C)n(CC2CCCN(CC(=O)Nc3nncs3)C2)n1 (centres undefined)"
reported_value = 3.08

[[record]]
compound = "Cc1cc(CN(C)C(=O)NC2CCCN(c3ncccn3)C2)no1 (centres undefined)"
reported_value = 1.46

[[record]]
compound = "CS(=O)(=O)N1CC[C@H]2C[C@@H](C(=O)N3CCOCC3)O[C@@H]2C1"
reported_value = 8.84

[[record]]
compound = "Cc1ncc2c(n1)CN(Cc1nnc(Cc3ccccc3)o1)CC2"
reported_value = -11.8


----------
- tested target: Arginase-2, mitochondrial (Homo sapiens)
- Sequence (whole entry): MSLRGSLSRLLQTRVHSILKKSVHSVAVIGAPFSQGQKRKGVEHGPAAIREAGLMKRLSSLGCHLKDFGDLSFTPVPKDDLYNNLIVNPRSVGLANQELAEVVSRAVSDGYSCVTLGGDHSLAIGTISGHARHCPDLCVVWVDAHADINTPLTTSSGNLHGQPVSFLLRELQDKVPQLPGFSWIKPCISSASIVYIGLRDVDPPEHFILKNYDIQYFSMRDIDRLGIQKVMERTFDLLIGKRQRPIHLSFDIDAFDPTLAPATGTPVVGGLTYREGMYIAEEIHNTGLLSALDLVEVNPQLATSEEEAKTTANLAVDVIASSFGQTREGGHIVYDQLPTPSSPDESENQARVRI
- procedure text: in vitro enzyme assay to detect the production of urea directly proportional to the activity of Arginase II; further: in the data most compounds retested in dose-response had high values
- Assay type: functional
- Design: scale not given: direction of the effect not stated beside the values
- experimental context: 33.3 µM
reported metric: Percent Effect (%)

[[record]]
compound = "Cc1cc(NC(=O)NCc2cccnc2OC(C)C)n(C)n1"
units_symbol = "%"
reported_value = -1.07

[[record]]
compound = "Cc1cccc(NC2CCN(C(=O)Nc3cc(F)cc(F)c3)CC2)n1"
units_symbol = "%"
reported_value = -4.18

[[record]]
compound = "COc1ccc(COCC(O)CNC(=O)c2cccnc2)cc1 (stereo not given)"
units_symbol = "%"
reported_value = -5.38

[[record]]
compound = "CC(=O)N(Cc1noc(C2CC2)n1)C1CCN(Cc2ccncc2)C1 (stereo not given)"
units_symbol = "%"
reported_value = -4.51

[[record]]
compound = "CN(C(=O)Cc1c[nH]c2ccccc12)C1CCN(c2ccccn2)CC1"
units_symbol = "%"
reported_value = 1.77

[[record]]
compound = "Cc1ccc(CC(=O)N2Cc3nccn3CC(CN(C)C)C2)cc1 (stereo not given)"
units_symbol = "%"
reported_value = 5.59

[[record]]
compound = "O=C(NCc1ccccc1)[C@H]1C[C@@H]2CN(S(=O)(=O)C3CC3)C[C@H]1O2"
units_symbol = "%"
reported_value = -1.22

[[record]]
compound = "CC(C)CN1C(=O)C2(CCN(Cc3nccs3)C2)c2ccccc21 (stereo not given)"
units_symbol = "%"
reported_value = 5

[[record]]
compound = "Cn1nc(CNC(=O)c2nc3ccccc3s2)c2c1CCOC2"
units_symbol = "%"
reported_value = -0.645

[[record]]
compound = "COc1ccc(C2CC(=O)Nc3c2nc2n3CCCC2)cc1O (stereo not given)"
units_symbol = "%"
reported_value = 7.34


----------
- tested target: Ubiquitin-activating enzyme e1, putative (Leishmania donovani (strain BPK282A1)) (UniProt E9BSI1)
- Sequence (E9BSI1 as listed by the source): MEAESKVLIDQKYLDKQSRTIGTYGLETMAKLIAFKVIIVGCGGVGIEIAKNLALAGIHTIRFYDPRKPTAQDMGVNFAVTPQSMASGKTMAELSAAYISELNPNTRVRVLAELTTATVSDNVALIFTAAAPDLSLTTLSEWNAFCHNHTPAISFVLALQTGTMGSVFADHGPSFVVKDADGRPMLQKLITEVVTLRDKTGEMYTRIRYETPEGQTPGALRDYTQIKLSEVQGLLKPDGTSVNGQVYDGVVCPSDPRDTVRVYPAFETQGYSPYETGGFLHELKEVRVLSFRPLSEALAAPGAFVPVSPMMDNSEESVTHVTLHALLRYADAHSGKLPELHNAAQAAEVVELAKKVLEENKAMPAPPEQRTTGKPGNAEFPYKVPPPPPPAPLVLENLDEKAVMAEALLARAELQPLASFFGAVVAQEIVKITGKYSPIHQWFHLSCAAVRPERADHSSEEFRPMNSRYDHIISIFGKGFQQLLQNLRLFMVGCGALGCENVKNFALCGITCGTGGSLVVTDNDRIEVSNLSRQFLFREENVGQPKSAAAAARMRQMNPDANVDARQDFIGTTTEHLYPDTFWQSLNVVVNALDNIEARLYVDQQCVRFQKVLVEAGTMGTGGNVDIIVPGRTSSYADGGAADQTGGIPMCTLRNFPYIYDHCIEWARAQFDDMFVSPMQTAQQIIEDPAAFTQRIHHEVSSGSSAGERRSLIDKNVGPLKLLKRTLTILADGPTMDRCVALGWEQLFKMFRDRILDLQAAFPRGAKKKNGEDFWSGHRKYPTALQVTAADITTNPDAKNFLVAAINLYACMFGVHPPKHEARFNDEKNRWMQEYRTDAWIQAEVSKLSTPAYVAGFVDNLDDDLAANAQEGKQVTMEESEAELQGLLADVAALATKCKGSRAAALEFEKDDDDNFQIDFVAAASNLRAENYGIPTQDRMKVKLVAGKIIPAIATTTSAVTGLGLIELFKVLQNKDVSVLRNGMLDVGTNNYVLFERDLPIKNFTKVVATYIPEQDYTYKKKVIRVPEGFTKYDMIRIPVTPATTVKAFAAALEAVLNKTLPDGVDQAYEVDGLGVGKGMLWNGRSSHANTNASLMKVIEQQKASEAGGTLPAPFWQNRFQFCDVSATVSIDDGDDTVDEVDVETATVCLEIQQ
- procedure text: Leishmania donovani Ubiquitin Activating Enzyme (LdE1)
- Type: functional
- Set-up: scale not given: direction of the effect not stated beside the values
- experimental context: 30 µM
Potency and affinity values are given separately.
reported metric: Percent Effect (%)

[[record]]
compound = "CCn1cc(NC(=O)CCc2ccc3c(c2)OCCCO3)cn1"
reported_value = 15.6

[[record]]
compound = "Cc1cnc(C(=O)N2CCCCC2c2[nH]ncc2S(C)(=O)=O)cn1 (stereo not given)"
reported_value = 4

[[record]]
compound = "Cc1cc(C(=O)N2CCc3nnc(N)cc3C2)c(C)n1C1CC1"
reported_value = 8.86

[[record]]
compound = "Cc1noc(C)c1CN1CCN(Cc2nccn2C)C(C)C1 (stereo not given)"
reported_value = 10.1

[[record]]
compound = "Cc1[nH]/c(=N\\C(=O)c2csc(NC3CC3)n2)sc1C"
reported_value = 8.11

[[record]]
compound = "O=C(Cc1ccc2c(c1)OCCO2)NCCc1nnc2n1CCC2"
reported_value = 24.3

[[record]]
compound = "CCOC(=O)[C@]12CCCN(Cc3nccs3)C[C@H]1CN(C(C)=O)C2"
reported_value = 5.2

[[record]]
compound = "COc1cccc2c1ccn2CCNC(=O)C(C)C"
reported_value = 20

[[record]]
compound = "Cc1nc(N2CCN(C)CC2)ncc1C(=O)N1CCC(O)(CO)CC1"
reported_value = 5.41

[[record]]
compound = "Cc1cnn(CC(C)NCc2ccc(-n3cccn3)cc2)c1 (stereo not given)"
reported_value = 1.27

[[record]]
compound = "CC(C)(C)c1n[nH]c(C2CN(C(=O)CCc3cscn3)CCO2)n1 (stereo not given)"
reported_value = 7.69

[[record]]
compound = "COc1ccc(CN2CC[C@@H](O)[C@@H]2Cc2ccccc2)cc1"
reported_value = -1.33

[[record]]
compound = "Cc1ccc([C@@H]2CN(C(=O)c3cccnn3)C[C@H]2NC(=O)C2CC2)cc1"
reported_value = 5.41

[[record]]
compound = "c1ccc(CCNC2CCc3ncnn3C2)nc1 (stereo not given)"
reported_value = 18.2

[[record]]
compound = "CCSCCC(=O)NS(=O)(=O)c1ccc2c(c1)OCCO2"
reported_value = 10.3

[[record]]
compound = "CCc1nc(CN2CCN(C(=O)c3cnccn3)CC2)cs1"
reported_value = 5.41

[[record]]
compound = "CCOc1ccc(CC(CNC(=O)c2ccoc2)C(N)=O)cc1 (stereo not given)"
reported_value = 13

[[record]]
compound = "Cc1ccc(C(=O)N2CCN(Cc3ccsc3)CC2)n1C"
reported_value = 5.33

[[record]]
compound = "Cc1noc(C)c1C(=O)N1CC[C@H]2C[C@@H](c3ccncn3)O[C@@H]2C1"
reported_value = 6.49

[[record]]
compound = "Cc1cc(C(=O)N2CCCCC2c2nc(C)cs2)[nH]n1 (stereo not given)"
reported_value = 5.2

[[record]]
compound = "COc1ccc(C(C)NC(=O)NCCCn2cncn2)cc1F (stereo not given)"
reported_value = 16

[[record]]
compound = "CCCn1c(C)cc(C(=O)CN2C(=O)c3ccccc3CS2(=O)=O)c1C"
reported_value = -18.9

[[record]]
compound = "O=C(NCCNc1ncccn1)C1CCN(C(=O)C2CC2)CC1"
reported_value = 13.5

[[record]]
compound = "CS(=O)(=O)NCc1ncn2c1CN(C(=O)CC1CCCC1)CCC2"
reported_value = -1.3

[[record]]
compound = "O=C(CC1CCCC1)NCCn1ccc(-c2ccccn2)n1"
reported_value = 2.6

[[record]]
compound = "CC(C)c1cc(C(=O)N(C)Cc2cccc3ncccc23)n(C)n1"
reported_value = 12

[[record]]
compound = "CC(C)(C)c1noc(CN2CCCN(Cc3cccs3)CC2)n1"
reported_value = 10.4

[[record]]
compound = "CC(C)Cc1nc(OCC(=O)O)c(C#N)c2c1CCC2"
reported_value = 9.33

[[record]]
compound = "COCCC(=O)N1CC[C@@H](N(C)C)[C@@H]1Cc1ccccc1"
reported_value = 5.33

[[record]]
compound = "Cc1cc(CN(C)C(=O)NCC(C)N2CCc3ccccc32)no1 (stereo not given)"
reported_value = -2.6

[[record]]
compound = "COc1ccc(CN(C)CC(=O)NC2(C)CCS(=O)(=O)C2)cc1F (stereo not given)"
reported_value = 0

[[record]]
compound = "O=C(NCCCO)Nc1cccc(Cl)c1F"
reported_value = 12.5

[[record]]
compound = "COCCN1CCc2cc(C(=O)NCC3CC3)c(NC(C)C)nc2CC1"
reported_value = 8

[[record]]
compound = "CC(NC(=O)NCCCN1CCCCCC1)c1nncn1C (stereo not given)"
reported_value = 10.8

[[record]]
compound = "CC(c1cccc(S(N)(=O)=O)c1)N(C)CCc1ccccc1 (stereo not given)"
reported_value = 20.8


----------
- Test system: Trypanosoma cruzi
- procedure text: Trypanosoma cruzi phosphomannomutase and mannose-1-phosphate guanylyltransferase assay
- Type: functional
- Set-up: scale not given: direction of the effect not stated beside the values
- experimental context: 10 µM
reported metric: Percent Effect (%)

[[record]]
compound = "CC(NC1(CNC(=O)CC(C)(C)C)CCOCC1)c1ccccc1 (configuration not stated)"
reported_metric = "Percent Effect"
reported_value = -0.684

[[record]]
compound = "COc1ncc(C2(O)CCN(Cc3ccccc3O)CC2)c(OC)n1"
reported_metric = "Percent Effect"
reported_value = 1.58

[[record]]
compound = "Cc1nn(C)c(C)c1CNCc1ccc(N2CCOCC2)nc1"
reported_metric = "Percent Effect"
reported_value = 1.95

[[record]]
compound = "COc1ccc(COCC(O)CNC(=O)c2cc(C)cc(C)c2)cc1 (configuration not stated)"
reported_metric = "Percent Effect"
reported_value = 0.718

[[record]]
compound = "O=C(O)[C@]12CCCN(Cc3ccncc3)[C@@H]1CCN(c1cnccn1)C2"
reported_metric = "Percent Effect"
reported_value = -6.91

[[record]]
compound = "CCC(=O)N1CCC2(CC1)COc1ccccc1S(=O)(=O)N(C)C2"
reported_metric = "Percent Effect"
reported_value = 1.27

[[record]]
compound = "CN(C)CC1CN(c2ccc(C#N)cn2)CCO1 (configuration not stated)"
reported_metric = "Percent Effect"
reported_value = 3.27

[[record]]
compound = "CC(C)CN1CCC2(C=C(C(=O)N3CCCC3)c3ccccc32)CC1"
reported_metric = "Percent Effect"
reported_value = -6.76

[[record]]
compound = "CCCS(=O)(=O)NC(C)C(=O)NCc1ccc(N2CCCC2)nc1 (configuration not stated)"
reported_metric = "Percent Effect"
reported_value = -0.66

[[record]]
compound = "Cc1nc(CNC(=O)NCC(O)c2ccc(F)cc2F)cs1 (configuration not stated)"
reported_metric = "Percent Effect"
reported_value = -4.62

[[record]]
compound = "CCc1[nH]ncc1C(=O)N1CCCC(n2cccn2)C1 (configuration not stated)"
reported_metric = "Percent Effect"
reported_value = -2.21

[[record]]
compound = "Cn1cc(C(=O)N2CCCC(Cc3nccs3)C2)cn1 (configuration not stated)"
reported_metric = "Percent Effect"
reported_value = -2.96

